- experimentNotes: NCI Yeast Anticancer Drug Screen. Data for the bub3 strain (AID 167)
- conditionInfo: S. cerevisiae bub3 mutant strain, at 50.0 µM (retest, dose inferred, filed as 5.0), stronger effect = higher value
Compounds without any hit were thinned out: in the full panel of roughly 79,000, 15% have a hit.
Here, each record is paired with measured growth inhibition data.
Kindly provide the numeric value in % only, without the unit symbol.

# molecule, valueObserved
records = [
    ("CC(C)[C@H](N)C(=O)NCCNC(=O)[C@@H](N)C(C)C", 100),
    ("CCOc1ccc(N=NS(=O)(=O)O)cc1", -13),
    ("CC12CCC(=O)C=C1CCC1C2CCC2(C)C(C(=O)Cn3cnc4c(=S)nc[nH]c43)CCC12 (stereo unspecified)", 16),
]

**Q:** // query growth inhibition value for entry "Nc1nnc(-c2cc(=O)c3cc(Cl)ccc3o2)s1"
**A:** 11

**Q:** Would you kindly repeat that for "O=C(O)Cc1cccc2c(=O)c3cccc([N+](=O)[O-])c3[nH]c12" ?
**A:** 85

**Q:** Would you kindly repeat that for "CCN(CC)CCOc1cccc2c1C(=O)c1c(O)cccc1C2=O" ?
**A:** 47

**Q:** Would you kindly repeat that for "CN(/N=C/c1ccc([N+](=O)[O-])o1)C(N)=O" ?
**A:** 28

**Q:** Would you kindly repeat that for "O=[N+]([O-])c1ccc(Sc2ccc([N+](=O)[O-])o2)cc1" ?
**A:** 99

**Q:** Would you kindly repeat that for "NC(=S)N/N=C1\NC(=O)/C(=C/c2ccc3c(c2)OCO3)S1" ?
**A:** 31

**Q:** Would you kindly repeat that for NC(=O)CC1CCC(c2ccccc2)CC1 (stereo unspecified) ?
**A:** -53

**Q:** Would you kindly repeat that for "O=c1[nH]c2c([N+](=O)[O-])cc(Cl)cc2nc1/C=C(\O)c1ccccn1" ?
**A:** 27

----------
- experimentNotes: NCI Yeast Anticancer Drug Screen. Data for the mec2-1 strain (AID 157)
- conditionInfo: S. cerevisiae mec2-1 strain, at 50.0 µM (retest, dose inferred, filed as 5.0)
This is part of a sample that, as a whole, favours compounds with a hit. Of some 79,000 tested, about 15% had one in any assay. Activity calls are given as the source filed them. No stated cut-off is given here; in the data, active means growth inhibition above about 70%; inactive means the rest.
Give your call using only these classes: yes for active, no for inactive

# compound, classAssignment
data = [
    ("CC12CCC(O)CC1=CCC1C2CCC2(C)c3nc(C#N)c(=N)n(O)c3CC12 (configuration not stated)", "yes"),
    ("O=C1CCCCC1Sc1ccc(Cl)cc1 (configuration not stated)", "yes"),
    ("C(=C\\c1cccc2ccccc12)/c1ccncc1", "yes"),
    ("CC(=O)OCC1OC(OC2C=C(O[Si](C)(C)C)C[C@H]3C(=O)C=CC(=O)[C@@H]23)C(OC(C)=O)C(OC(C)=O)C1OC(C)=O (some centres not stated)", "yes"),
    ("NNc1c(F)c(F)c(-c2c(F)c(F)c(NN)c(F)c2F)c(F)c1F", "no"),
]

**Q:** Outcome? "CCC[CH2][Sn]([CH2]CCC)([O]N(C)C(=O)c1ccc(Br)cc1)[O]N(C)C(=O)c1ccc(Br)cc1"
**A:** yes

**Q:** Would you kindly repeat that for "CCC/C(C)=N/NC(=S)SC" ?
**A:** yes
